target: EGFR R776H (Homo sapiens, UniProt P00533, R776H); experiment: Ba/F3 cell viability, Cell Titer Glo; conditions: read-out: IC50 Values; Ba/F3 cells expressing EGFR R776H, 72 hours
pIC50: −log10 of the molar value.
property: pIC50

molecule="C=CC(=O)N1CC[C@@H](Oc2nc(Nc3ccc(N4CCC(N5CCN(C)CC5)CC4)cc3)c(C(N)=O)nc2CC)C1 [Naquotinib]" reported=7.16

====

biological target: EGFR S768I V774M (Homo sapiens, UniProt P00533, S768I/V774M); test: Ba/F3 cell viability, Cell Titer Glo; conditions: read-out: IC50 Values; Ba/F3 cells expressing EGFR S768I V774M, 72 hours
pIC50: −log10 of the molar value.
property: pIC50

molecular_string=C=CC(=O)N1CC[C@@H](Oc2nc(Nc3ccc(N4CCC(N5CCN(C)CC5)CC4)cc3)c(C(N)=O)nc2CC)C1 reported=7.18

====

biological target: EGFR K754E (Homo sapiens, UniProt P00533, K754E); assay: Ba/F3 cell viability, Cell Titer Glo; conditions: read-out: IC50 Values; Ba/F3 cells expressing EGFR K754E, 72 hours
Sequence (P00533 25-1210 K754E): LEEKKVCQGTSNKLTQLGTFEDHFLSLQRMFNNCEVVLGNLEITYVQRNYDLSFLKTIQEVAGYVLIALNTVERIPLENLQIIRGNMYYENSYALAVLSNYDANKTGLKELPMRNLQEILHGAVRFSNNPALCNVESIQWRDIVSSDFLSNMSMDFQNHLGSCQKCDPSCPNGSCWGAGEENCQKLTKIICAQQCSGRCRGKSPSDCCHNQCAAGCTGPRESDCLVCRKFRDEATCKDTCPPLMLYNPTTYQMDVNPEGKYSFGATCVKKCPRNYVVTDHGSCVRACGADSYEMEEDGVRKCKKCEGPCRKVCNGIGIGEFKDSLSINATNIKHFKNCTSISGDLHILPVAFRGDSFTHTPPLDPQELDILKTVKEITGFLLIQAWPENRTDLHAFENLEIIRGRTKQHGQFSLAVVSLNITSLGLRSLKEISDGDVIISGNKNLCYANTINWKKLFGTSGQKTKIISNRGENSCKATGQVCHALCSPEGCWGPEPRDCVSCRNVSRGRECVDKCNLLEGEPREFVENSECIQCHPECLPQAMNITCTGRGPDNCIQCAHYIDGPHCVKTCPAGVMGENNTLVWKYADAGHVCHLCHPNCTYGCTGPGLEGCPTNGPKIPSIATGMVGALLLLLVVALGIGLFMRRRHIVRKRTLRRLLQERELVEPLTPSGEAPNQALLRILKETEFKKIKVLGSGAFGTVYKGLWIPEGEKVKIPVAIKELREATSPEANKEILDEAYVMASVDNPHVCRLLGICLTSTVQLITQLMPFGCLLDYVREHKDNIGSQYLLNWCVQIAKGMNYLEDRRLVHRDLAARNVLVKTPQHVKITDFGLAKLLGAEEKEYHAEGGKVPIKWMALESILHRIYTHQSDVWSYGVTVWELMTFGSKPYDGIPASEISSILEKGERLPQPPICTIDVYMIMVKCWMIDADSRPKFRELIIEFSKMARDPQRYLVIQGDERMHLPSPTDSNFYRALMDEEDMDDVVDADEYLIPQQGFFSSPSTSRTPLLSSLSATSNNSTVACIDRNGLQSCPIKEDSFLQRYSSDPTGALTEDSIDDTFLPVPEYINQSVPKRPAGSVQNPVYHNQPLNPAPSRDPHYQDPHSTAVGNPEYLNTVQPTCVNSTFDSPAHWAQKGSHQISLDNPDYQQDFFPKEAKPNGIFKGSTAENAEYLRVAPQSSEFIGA
property: IC50 (nM)

molecule="C=CC(=O)N1CC[C@@H](Oc2nc(Nc3ccc(N4CCC(N5CCN(C)CC5)CC4)cc3)c(C(N)=O)nc2CC)C1 [Naquotinib]" reported=66

====

target: EGFR Ex19del/C797S (Homo sapiens, UniProt P00533, C797S/DEL746-750); assay: Ba/F3 cell viability, Cell Titer Glo; conditions: read-out: IC50 Values; Ba/F3 cells expressing EGFR Ex19del/C797S, 72 hours
property: IC50 (nM)

molecular_string=C=CC(=O)N1CC[C@@H](Oc2nc(Nc3ccc(N4CCC(N5CCN(C)CC5)CC4)cc3)c(C(N)=O)nc2CC)C1 property=IC50 reported=1540

====

Consider the following compounds and their measured IC50 readings.
target: EGFR L718Q T790M (Homo sapiens, UniProt P00533, L718Q/T790M); experiment: Ba/F3 cell viability, Cell Titer Glo; details: read-out: IC50 Values; Ba/F3 cells expressing EGFR L718Q T790M, 72 hours
property: IC50

compound="C=CC(=O)N1CC[C@@H](Oc2nc(Nc3ccc(N4CCC(N5CCN(C)CC5)CC4)cc3)c(C(N)=O)nc2CC)C1 [Naquotinib]" subject_of_test="EGFR L718Q T790M (Homo sapiens, UniProt P00533, L718Q/T790M)" reported="212 nM"
compound="COc1cc(N2CCC(N)CC2)ccc1Nc1ncc(Cl)c(-c2c[nH]c3ccccc23)n1 [AZD3463]" subject_of_test="EGFR L718Q T790M (Homo sapiens, UniProt P00533, L718Q/T790M)" reported="1140 nM"

====

biological target: EGFR E709K (Homo sapiens, UniProt P00533, E709K); assay: Ba/F3 cell viability, Cell Titer Glo; conditions: read-out: IC50 Values; Ba/F3 cells expressing EGFR E709K, 72 hours
Sequence (P00533 25-1210 E709K): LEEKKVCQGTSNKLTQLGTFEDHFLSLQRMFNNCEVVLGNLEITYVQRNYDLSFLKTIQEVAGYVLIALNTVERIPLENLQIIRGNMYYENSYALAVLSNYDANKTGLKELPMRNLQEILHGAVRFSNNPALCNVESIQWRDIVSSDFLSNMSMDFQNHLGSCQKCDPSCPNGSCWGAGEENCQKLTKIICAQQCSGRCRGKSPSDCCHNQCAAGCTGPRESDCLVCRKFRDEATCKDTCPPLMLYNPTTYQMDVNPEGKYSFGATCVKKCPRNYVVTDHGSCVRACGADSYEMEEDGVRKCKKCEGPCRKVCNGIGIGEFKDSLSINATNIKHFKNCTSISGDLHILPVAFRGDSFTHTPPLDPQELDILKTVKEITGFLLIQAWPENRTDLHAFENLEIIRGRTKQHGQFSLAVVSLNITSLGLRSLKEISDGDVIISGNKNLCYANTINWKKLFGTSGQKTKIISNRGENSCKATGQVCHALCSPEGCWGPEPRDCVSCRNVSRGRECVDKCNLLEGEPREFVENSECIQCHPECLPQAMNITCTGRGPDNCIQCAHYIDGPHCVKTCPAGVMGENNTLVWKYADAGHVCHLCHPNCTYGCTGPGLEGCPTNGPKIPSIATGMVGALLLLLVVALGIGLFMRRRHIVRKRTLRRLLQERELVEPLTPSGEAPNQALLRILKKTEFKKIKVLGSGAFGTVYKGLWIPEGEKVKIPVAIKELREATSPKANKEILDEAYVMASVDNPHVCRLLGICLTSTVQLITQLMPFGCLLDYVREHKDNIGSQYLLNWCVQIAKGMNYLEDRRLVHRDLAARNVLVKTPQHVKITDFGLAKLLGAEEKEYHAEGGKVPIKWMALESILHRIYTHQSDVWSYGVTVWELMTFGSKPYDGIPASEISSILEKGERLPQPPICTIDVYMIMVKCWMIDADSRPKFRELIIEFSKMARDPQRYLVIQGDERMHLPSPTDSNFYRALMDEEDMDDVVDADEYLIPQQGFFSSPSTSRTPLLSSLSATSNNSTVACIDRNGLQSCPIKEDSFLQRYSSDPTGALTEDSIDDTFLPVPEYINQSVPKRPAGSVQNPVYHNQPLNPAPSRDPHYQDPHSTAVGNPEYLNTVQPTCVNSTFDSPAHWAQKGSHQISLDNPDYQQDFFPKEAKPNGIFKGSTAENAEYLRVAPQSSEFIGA
pIC50: −log10 of the molar value.
property: pIC50

compound="C=CC(=O)N1CC[C@@H](Oc2nc(Nc3ccc(N4CCC(N5CCN(C)CC5)CC4)cc3)c(C(N)=O)nc2CC)C1 [Naquotinib]" reported=6.45

====

molecular target: EGFR H773insNPH (Homo sapiens, UniProt P00533, INS773NPH); assay: Ba/F3 cell viability, Cell Titer Glo; conditions: read-out: IC50 Values; Ba/F3 cells expressing EGFR H773insNPH, 72 hours
property: IC50 (nM)

molecular_string=C=CC(=O)N1CC[C@@H](Oc2nc(Nc3ccc(N4CCC(N5CCN(C)CC5)CC4)cc3)c(C(N)=O)nc2CC)C1 display_unit=nM reported=145

====

molecular target: EGFR L858R/L718V (Homo sapiens, UniProt P00533, L718V/L858R); assay: Ba/F3 cell viability, Cell Titer Glo; conditions: read-out: IC50 Values; Ba/F3 cells expressing EGFR L858R/L718V, 72 hours
Sequence (P00533 25-1210 L718V/L858R): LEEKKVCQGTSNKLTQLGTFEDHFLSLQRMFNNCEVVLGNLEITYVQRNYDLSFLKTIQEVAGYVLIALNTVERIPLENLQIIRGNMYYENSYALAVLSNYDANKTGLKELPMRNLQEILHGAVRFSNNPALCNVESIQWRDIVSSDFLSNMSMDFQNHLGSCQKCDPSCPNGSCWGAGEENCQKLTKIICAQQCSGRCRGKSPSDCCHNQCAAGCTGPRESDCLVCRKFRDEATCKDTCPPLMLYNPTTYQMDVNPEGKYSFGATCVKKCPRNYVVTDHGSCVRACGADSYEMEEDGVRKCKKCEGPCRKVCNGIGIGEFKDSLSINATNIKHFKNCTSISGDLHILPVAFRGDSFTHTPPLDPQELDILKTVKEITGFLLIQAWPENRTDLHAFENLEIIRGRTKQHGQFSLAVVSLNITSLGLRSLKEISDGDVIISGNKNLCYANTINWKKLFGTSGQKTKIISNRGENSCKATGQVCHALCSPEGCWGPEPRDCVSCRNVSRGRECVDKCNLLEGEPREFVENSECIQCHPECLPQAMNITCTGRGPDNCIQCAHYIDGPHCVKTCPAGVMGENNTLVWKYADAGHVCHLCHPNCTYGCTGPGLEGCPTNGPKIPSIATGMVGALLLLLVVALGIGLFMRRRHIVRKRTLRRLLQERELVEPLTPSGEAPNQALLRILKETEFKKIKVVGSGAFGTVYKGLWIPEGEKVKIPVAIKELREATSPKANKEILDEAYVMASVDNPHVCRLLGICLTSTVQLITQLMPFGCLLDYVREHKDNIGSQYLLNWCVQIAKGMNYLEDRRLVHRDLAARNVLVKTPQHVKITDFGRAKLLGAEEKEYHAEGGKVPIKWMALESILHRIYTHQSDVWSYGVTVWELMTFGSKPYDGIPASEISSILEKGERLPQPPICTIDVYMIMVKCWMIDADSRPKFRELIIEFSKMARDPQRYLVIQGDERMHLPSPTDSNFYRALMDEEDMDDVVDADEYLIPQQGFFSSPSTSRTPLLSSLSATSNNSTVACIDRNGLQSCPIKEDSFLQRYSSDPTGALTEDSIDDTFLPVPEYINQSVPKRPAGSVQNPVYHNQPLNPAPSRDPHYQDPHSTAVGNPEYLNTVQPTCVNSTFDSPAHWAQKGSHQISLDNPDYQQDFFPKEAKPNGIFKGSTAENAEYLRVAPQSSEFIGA
property: IC50

molecular_string=C=CC(=O)N1CC[C@@H](Oc2nc(Nc3ccc(N4CCC(N5CCN(C)CC5)CC4)cc3)c(C(N)=O)nc2CC)C1 subject_of_test="EGFR L858R/L718V (Homo sapiens, UniProt P00533, L718V/L858R)" property=IC50 reported="18.8 nM"

====

molecular target: EGFR Ex19del/L792H (Homo sapiens, UniProt P00533, DEL746-750/L792H); assay: Ba/F3 cell viability, Cell Titer Glo; settings: read-out: IC50 Values; Ba/F3 cells expressing EGFR Ex19del/L792H, 72 hours
pIC50: −log10 of the molar value.
property: pIC50

molecular_string=C=CC(=O)N1CC[C@@H](Oc2nc(Nc3ccc(N4CCC(N5CCN(C)CC5)CC4)cc3)c(C(N)=O)nc2CC)C1 reported=8.40

====

target: EGFR S720P (Homo sapiens, UniProt P00533, S720P); experiment: Ba/F3 cell viability, Cell Titer Glo; conditions: read-out: IC50 Values; Ba/F3 cells expressing EGFR S720P, 72 hours
pIC50: −log10 of the molar value.
property: pIC50

molecular_string=C=CC(=O)N1CC[C@@H](Oc2nc(Nc3ccc(N4CCC(N5CCN(C)CC5)CC4)cc3)c(C(N)=O)nc2CC)C1 subject_of_test="EGFR S720P (Homo sapiens, UniProt P00533, S720P)" reported=7.28

====

biological target: EGFR E709K L858R (Homo sapiens, UniProt P00533, E709K/L858R); assay: Ba/F3 cell viability, Cell Titer Glo; conditions: read-out: IC50 Values; Ba/F3 cells expressing EGFR E709K L858R, 72 hours
property: IC50

molecular_string=C=CC(=O)N1CC[C@@H](Oc2nc(Nc3ccc(N4CCC(N5CCN(C)CC5)CC4)cc3)c(C(N)=O)nc2CC)C1 subject_of_test="EGFR E709K L858R (Homo sapiens, UniProt P00533, E709K/L858R)" property=IC50 reported="11 nM"

====

target: EGFR L747S (Homo sapiens, UniProt P00533, L747S); assay: Ba/F3 cell viability, Cell Titer Glo; details: read-out: IC50 Values; Ba/F3 cells expressing EGFR L747S, 72 hours
Sequence (P00533 25-1210 L747S): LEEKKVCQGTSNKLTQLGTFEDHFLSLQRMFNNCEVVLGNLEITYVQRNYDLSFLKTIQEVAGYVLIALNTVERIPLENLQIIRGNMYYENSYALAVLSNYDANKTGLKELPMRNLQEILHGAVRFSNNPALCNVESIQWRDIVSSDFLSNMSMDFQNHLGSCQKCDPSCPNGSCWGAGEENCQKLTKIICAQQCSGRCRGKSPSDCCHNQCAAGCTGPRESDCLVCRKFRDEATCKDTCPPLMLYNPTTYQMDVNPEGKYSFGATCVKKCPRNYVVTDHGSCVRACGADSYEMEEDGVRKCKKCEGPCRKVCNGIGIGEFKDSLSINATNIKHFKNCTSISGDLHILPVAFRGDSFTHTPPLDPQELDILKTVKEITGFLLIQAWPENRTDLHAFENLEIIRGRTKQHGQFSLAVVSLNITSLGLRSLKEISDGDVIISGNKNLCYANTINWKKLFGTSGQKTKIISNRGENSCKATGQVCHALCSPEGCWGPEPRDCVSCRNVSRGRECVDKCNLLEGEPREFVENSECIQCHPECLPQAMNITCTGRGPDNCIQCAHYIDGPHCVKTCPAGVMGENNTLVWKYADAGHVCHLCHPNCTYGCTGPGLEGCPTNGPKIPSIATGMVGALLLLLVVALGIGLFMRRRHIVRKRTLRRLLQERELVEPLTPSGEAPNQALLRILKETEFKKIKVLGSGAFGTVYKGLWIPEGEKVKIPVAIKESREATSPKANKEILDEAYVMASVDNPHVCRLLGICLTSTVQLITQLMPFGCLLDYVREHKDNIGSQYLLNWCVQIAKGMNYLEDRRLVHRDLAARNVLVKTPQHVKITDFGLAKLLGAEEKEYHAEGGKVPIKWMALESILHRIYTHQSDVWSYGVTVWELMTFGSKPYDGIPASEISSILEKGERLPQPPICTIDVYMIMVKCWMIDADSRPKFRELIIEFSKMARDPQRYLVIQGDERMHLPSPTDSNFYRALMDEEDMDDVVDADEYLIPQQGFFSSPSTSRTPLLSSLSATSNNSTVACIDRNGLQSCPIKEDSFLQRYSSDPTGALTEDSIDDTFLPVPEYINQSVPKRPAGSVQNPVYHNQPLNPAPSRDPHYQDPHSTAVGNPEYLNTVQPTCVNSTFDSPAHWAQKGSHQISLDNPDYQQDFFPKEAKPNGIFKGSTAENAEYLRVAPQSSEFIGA
property: IC50 (µM)

molecular_string=C=CC(=O)N1CC[C@@H](Oc2nc(Nc3ccc(N4CCC(N5CCN(C)CC5)CC4)cc3)c(C(N)=O)nc2CC)C1 subject_of_test="EGFR L747S (Homo sapiens, UniProt P00533, L747S)" property=IC50 display_unit=µM reported=0.12
